Settings: 312.66 K; 101.33 kPa; Liquid; Pulse-echo method
± gives the expanded uncertainty stated by the source.
parameter: speed of sound
Answer format: value, then unit.

CC(C)C(=O)[O-].C[NH2+]CCO [2-hydroxy-N-methylethanaminium isobutyrate] : 1570.4 ± 2.1 m/s

## Input Report measured speed of sound; entry is CCCCC(=O)[O-].C[NH2+]CCO [2-hydroxy-N-methylethanaminium pentanoate]
## Output 1503.7 ± 2.1 m/s

## Input Report measured speed of sound; entry is CCCC(=O)[O-].C[NH2+]CCO [N-methyl-2-hydroxyethylammonium butanoate]
## Output 1569 ± 2.1 m/s

## Input Report measured speed of sound; entry is CCC(=O)[O-].C[NH2+]CCO [2-hydroxy-N-methylethanaminium propionate]
## Output 1647.2 ± 2.1 m/s

## Input Report measured speed of sound; entry is C[NH2+]CCO.O=C[O-] [2-hydroxy-N-methylethanaminium formate]
## Output 1787.1 ± 2.2 m/s
